molecular target: T1, integrin αvβ8 on human ovarian carcinoma line OVCAR3 (human, UniProt P06756 31-1048; P26012 43-769); assay: flow cytometry on OVCAR3 cells, 15 min at 4 °C, detection with anti-mouse-PE, MFI against antibody concentration, KaleidaGraph fit
T1 construct: whole, on cells; also called OVCAR3 cells
T1 sequence (P06756 31-1048, chain 1 of 2): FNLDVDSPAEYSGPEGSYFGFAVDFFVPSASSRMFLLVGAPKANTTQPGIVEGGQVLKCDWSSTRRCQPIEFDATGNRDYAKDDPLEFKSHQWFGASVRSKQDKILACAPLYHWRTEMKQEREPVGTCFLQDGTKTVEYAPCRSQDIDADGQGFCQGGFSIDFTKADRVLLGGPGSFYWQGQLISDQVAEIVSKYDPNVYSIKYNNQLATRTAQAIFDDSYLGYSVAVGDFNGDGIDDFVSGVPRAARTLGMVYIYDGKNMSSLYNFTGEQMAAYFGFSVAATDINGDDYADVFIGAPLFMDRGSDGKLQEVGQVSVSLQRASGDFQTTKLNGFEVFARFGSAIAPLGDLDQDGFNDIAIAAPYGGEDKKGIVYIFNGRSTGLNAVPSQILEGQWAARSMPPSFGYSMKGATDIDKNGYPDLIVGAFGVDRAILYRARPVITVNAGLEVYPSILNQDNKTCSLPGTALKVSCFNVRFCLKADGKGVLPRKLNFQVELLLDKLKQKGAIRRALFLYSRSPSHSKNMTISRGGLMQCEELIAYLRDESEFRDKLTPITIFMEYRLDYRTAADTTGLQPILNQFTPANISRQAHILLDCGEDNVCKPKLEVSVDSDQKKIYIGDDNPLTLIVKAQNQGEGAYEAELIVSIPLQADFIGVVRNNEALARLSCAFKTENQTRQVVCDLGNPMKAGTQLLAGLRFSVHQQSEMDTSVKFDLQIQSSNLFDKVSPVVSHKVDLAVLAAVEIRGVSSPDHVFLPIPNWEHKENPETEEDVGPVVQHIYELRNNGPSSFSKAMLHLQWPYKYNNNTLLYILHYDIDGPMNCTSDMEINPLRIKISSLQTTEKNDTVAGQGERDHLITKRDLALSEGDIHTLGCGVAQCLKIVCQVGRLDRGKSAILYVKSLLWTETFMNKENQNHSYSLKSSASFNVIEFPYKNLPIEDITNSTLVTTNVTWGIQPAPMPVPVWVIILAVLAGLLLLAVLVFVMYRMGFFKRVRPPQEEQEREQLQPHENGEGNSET
T1 sequence (P26012 43-769, chain 2 of 2): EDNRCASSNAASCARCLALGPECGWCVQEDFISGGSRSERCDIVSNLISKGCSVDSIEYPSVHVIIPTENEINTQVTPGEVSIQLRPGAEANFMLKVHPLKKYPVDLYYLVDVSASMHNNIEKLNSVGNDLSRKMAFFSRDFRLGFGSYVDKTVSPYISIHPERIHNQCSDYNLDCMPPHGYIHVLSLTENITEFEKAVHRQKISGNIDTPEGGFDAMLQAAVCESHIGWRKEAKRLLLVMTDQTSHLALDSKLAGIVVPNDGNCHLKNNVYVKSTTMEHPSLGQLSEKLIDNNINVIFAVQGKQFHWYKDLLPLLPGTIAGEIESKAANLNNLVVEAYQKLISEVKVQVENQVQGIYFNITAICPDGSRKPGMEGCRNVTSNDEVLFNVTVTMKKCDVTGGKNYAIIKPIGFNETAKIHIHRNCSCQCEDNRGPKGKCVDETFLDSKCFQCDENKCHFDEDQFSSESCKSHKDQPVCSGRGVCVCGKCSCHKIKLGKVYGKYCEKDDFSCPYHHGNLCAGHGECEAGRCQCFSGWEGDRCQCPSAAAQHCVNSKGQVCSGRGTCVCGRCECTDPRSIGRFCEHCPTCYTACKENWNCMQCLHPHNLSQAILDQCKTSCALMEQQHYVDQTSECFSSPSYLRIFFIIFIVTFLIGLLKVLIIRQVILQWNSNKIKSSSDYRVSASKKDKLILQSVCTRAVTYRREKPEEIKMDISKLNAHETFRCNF
Measurement type: Kd (nM)

binder="antibody with light chain D4 VL1 (N to H) mutation expressed with heavy chain C6 (antibody, V domains shown, Single mutant of HuC6D4) VH: QIQLVQSGAEVKKPGASVKISCKASGYTFTDYSMHWVRQAPGQGLEWVARINTETGEPTFADDFRGRFTVTLDTSTSTAYLEIRSLRSDDTAVYFCAIFYYGRDTWGQGTTLTVSS VL: EIVMTQSPATLSVSPGERVTMSCKSSQSLLHSRSRKNYLAWYQQKPGQAPRLLIYWASTRESGVPARFSGSGSGTEFTLTISSVQSEDFAVYYCKQSYNLLSFGQGTVLEIKR" measurement_type=Kd uom=nM value_observed=4.7
binder="HuC6D4F12 (antibody, V domains shown, Whole antibody; also called HC6D4F12; HuC6D412) VH: QIQLVQSGAEVKKPGASVKISCKASGYTFTKYSMHWVRQAPGQGLEWVARINTETGEPTFADDFRGRFTVTLDTSTSTAYLEIRSLRSDDTAVYFCAIFYYGRDTWGQGTTLTVSS VL: EIVMTQSPATLSVSPGERVTMSCKSSQSLLHSRSRKNYLAWYQQKPGQAPRLLIYWASTRESGVPARFSGSGSGTEFTLTISSVQSEDFAVYYCKQSYNLLSFGQGTVLEIKR" measurement_type=Kd uom=nM value_observed=3.1
binder="HuC6D4 (antibody, V domains shown, Whole antibody; also called Human C6D4; Humanized C6D4) VH: QIQLVQSGAEVKKPGASVKISCKASGYTFTDYSMHWVRQAPGQGLEWVARINTETGEPTFADDFRGRFTVTLDTSTSTAYLEIRSLRSDDTAVYFCAIFYYGRDTWGQGTTLTVSS VL: EIVMTQSPATLSVSPGERVTMSCKSSQSLLNSRSRKNYLAWYQQKPGQAPRLLIYWASTRESGVPARFSGSGSGTEFTLTISSVQSEDFAVYYCKQSYNLLSFGQGTVLEIKR" measurement_type=Kd uom=nM value_observed=4.9
binder="antibody with heavy chain with the C6 VH1 (D to K) mutation expressed with light chain D4 (antibody, V domains shown, Single mutant of HuC6D4) VH: QIQLVQSGAEVKKPGASVKISCKASGYTFTKYSMHWVRQAPGQGLEWVARINTETGEPTFADDFRGRFTVTLDTSTSTAYLEIRSLRSDDTAVYFCAIFYYGRDTWGQGTTLTVSS VL: EIVMTQSPATLSVSPGERVTMSCKSSQSLLNSRSRKNYLAWYQQKPGQAPRLLIYWASTRESGVPARFSGSGSGTEFTLTISSVQSEDFAVYYCKQSYNLLSFGQGTVLEIKR" measurement_type=Kd uom=nM value_observed=2.5
